target: T1, recombinant human CDCP1 ECD (AA30-667) with C-terminal His tag (human, UniProt Q9H5V8 30-667); test: Octet BLI, Ab on Protein A sensor, recombinant CDCP1 analyte;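 further: antibody captured for 120 s on the sensor, followed by 300 s association with CDCP1 and a 300–600 s dissociation phase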
T1 construct: range 30-667; also called FL-ECD; recombinant FL-ECD
pKd: −log10 of the molar value.

binder: 03C05 (antibody, V domains shown, also called 3C5) VH: EVQVLESGGGLVQPGGSLRLSCAASGFTFSSYVMSWVRQAPGKGLEWVSGISGSGGSTHYADSVKGRFTISRDNSKNTLYLQMNSLRAEDTALYYCAQQWPQGYWGQGTLVTVSS VL: DIQMTQSPSSLSASVGDRVTITCRASQDISIYLAWFQQKPGKVPKVLIYAASTLQSGVPSRFSGSGTGTDFTLTISSLQPEDVATYFCQKYNSAPFTFGPGTKLEIK
pKd: 7.70
//
binder: 27H10 (antibody, human IgG1, V domains shown, also called human antibody 27H10) VH: QVQLVQSGAEVKKPGSSVKVSCKASGGTFSSYAMSWVRQAPGQGLEWMGGIIPILGTTNYAQKFQGRVTITADKSTSTAYMELSSLRSEDTAVYYCAREGLYAFDIWGQGTMVTVSS VL: DIQMTQSPSSLSASVGDRVTITCRASQSISSYLNWYQQKPGKAPKFLIYVASSLQSGVPSRFSGRGSGTDFTLTISSLQPEDFATYYCQQSYSTPWTFGQGTKVEIK
pKd: 7.35
